These entries and their values trace back to the supplement of paper PMC9732359.

ASSAY_TEXT: protein stability index of a GFP-peptide fusion (yeast GPS) (PSI 1-4); higher = more stable; sorted into four equal gates, so the index is relative within each strain
STUDY_CONDITIONS: san1∆
Rule: t for protein stability index not less than 3, f for anything less.

| POLYMER_SEQUENCE | CLASSIFICATION |
| --- | --- |
| STPENVPRLFDLVKPKN [SMC4] | f |
| LNHILEKSTQLQQKHEL [YGR119C/NUP57] | f |
| AVKRGTCAVGVKGKNCV [PRE6] | f |
| KSRGSDLQYLGEFSGKN [RRP6] | t |
| TTNNNNTNNNNTNNNNN [SWI1] | t |

###

ASSAY_TEXT: protein stability index of a GFP-peptide fusion (yeast GPS) (PSI 1-4); higher = more stable; sorted into four equal gates, so the index is relative within each strain
STUDY_CONDITIONS: pdr5∆
EXPERIMENTAL_READOUT: protein stability index

| POLYMER_SEQUENCE | EXPERIMENTAL_READOUT | VALUE_REPORTED |
| --- | --- | --- |
| GLCGAGTNNARLAQLLR [RPN1] | protein stability index | 1.79 |
| SHVNKYGLIRGLKFASF [PRP8] | protein stability index | 1.85 |
| LRPLFTRYELYIKNILE [YLR335W/NUP2] | protein stability index | 1.88 |
| IKIVYALTTIKGVGRRY [RPS18A] | protein stability index | 1.95 |
| QDRIQDVKLVLASNFDN [MED1] | protein stability index | 2.67 |
| GRTPNISNGTINIQKKL [SIR4] | protein stability index | 2.64 |
| VVFTRLVQRCWQWGNDR [CSN12] | protein stability index | 1.4 |
| LQLAPGAHLGRFVIWTE [RPL4A] | protein stability index | 2.98 |
| VSFYFEDGTIESYNQND [SIN4] | protein stability index | 2.34 |
| QLKAEEKKILNQFLKIK [SMC1] | protein stability index | 3.19 |
| NMVSLRGRNDTLERVHL [GRR1] | protein stability index | 3.22 |
| LYRLSTPLRDEVTDKNY [PRP8] | protein stability index | 2.88 |
| ATDEESVRLQRFYQLGV [CSN12] | protein stability index | 3.13 |
| YMQRTVEEAHDFNMKLA [RPB2] | protein stability index | 3.04 |
| PSTNAQNVNVPSAFNFT [YOR098C/NUP1] | protein stability index | 2.73 |
| MNAILTDVKLTLPQPRL [SMD1] | protein stability index | 2.96 |
| YMDCLLYDLRASYAKIE [SNU114] | protein stability index | 2.32 |
| DDELMNWRRLSGRNIHL [SSN2] | protein stability index | 2.91 |
| LLGKDNEDDALIYGISD [AAR2] | protein stability index | 3.14 |
| LLGPTLEDHTPPEDKPN [QCR10] | protein stability index | 2.81 |
| ISTLFQRDRHTLAYDRG [PRP8] | protein stability index | 3.21 |
| SLNLTDDVISNAGTNDN [MCD1] | protein stability index | 2.97 |
| ALTKFEASQVTEKQRKK [RPL35A] | protein stability index | 2.57 |
| NDLRDMILNYNPSQGVS [UBP6] | protein stability index | 3.23 |
| KIYKLENGERKLYDAKR [YMR129W/POM152] | protein stability index | 3.17 |
| FYSKNRLLITGTPLQNN [ISW2] | protein stability index | 1.39 |
| VYSFDPVGSYEREQCRA [PRE7] | protein stability index | 3.47 |
| DQWLEEYKKHFPPNLEK [UBP6] | protein stability index | 3.06 |
| EAQDEASLQQQQQQDLQ [SNF6] | protein stability index | 3.15 |
| DVMDELITSSARKELPI [SIR3] | protein stability index | 2.26 |
| NEIANSIIQSKQDCVDW [BRR2] | protein stability index | 2.87 |
| AFSYPRMYEEASGKEVE [RPN2] | protein stability index | 1.34 |
| SKRPQLGEIPNPMKKHK [SIR4] | protein stability index | 2.53 |
| QAQAQAHAQHQPSQQPQ [GAL11] | protein stability index | 2.97 |
| AMFFGNYGSSLQWHAMI [AAR2] | protein stability index | 1.8 |
| ERVSPTDIEEGMRVGVD [RPT1] | protein stability index | 3.4 |
| QTYINQELGFCELLKLT [SSN2] | protein stability index | 2.45 |
| FVKGISRDIKALQDSLF [YML103C/NUP188] | protein stability index | 2.18 |
| LSLGMDFIKFDQIAVCE [BRN1] | protein stability index | 3.01 |
| NSRNAIRKLVKNGTIVK [RPL19A] | protein stability index | 2.9 |
| SKILSQAPSELELQVAK [RPS7B] | protein stability index | 3.07 |
| AIRRDARYNWICDPVHK [RPL15A] | protein stability index | 3.37 |
| DSFSVPNRLVKELQYDN [PRE2] | protein stability index | 2.94 |
| VTKGGTVENPLRNWEEL [PRP28] | protein stability index | 2.71 |
| ILNHIGQLTGIYRYKYK [PRP8] | protein stability index | 1.47 |
| NNPDMMIQPPQQGQNMS [ROX3] | protein stability index | 2.92 |
| NQNICTSVTRRSPVFAL [GRR1] | protein stability index | 1.6 |
| DSLTRAVKDQQKYTKEM [SNF2] | protein stability index | 1.8 |
| SILVIVQKILPLSNEVF [SWI1] | protein stability index | 1.34 |
| YDDEQNTSAQHVESDKI [IRR1] | protein stability index | 3.04 |
| SSPLGFEETKLSTTPTK [SIR4] | protein stability index | 2.71 |
| IIELPNEKFEIELLSLD [SRB4] | protein stability index | 2.99 |
| QLTSLEKDCSLRAIEKN [YIL149C/MLP2] | protein stability index | 2.8 |
| MAVGKNKRLSRGKKGLK [RPS1B] | protein stability index | 1.62 |
| SAPPPALPHVEINQVSL [RGR1] | protein stability index | 2.96 |
| GIDQYSFNVKENQPFHG [AAR2] | protein stability index | 2.88 |
| EGIKETQAKRIFLQQFL [SWI1] | protein stability index | 2.75 |
| ELSFYILYSFKLSGKLL [YML103C/NUP188] | protein stability index | 1.49 |
| VTEMSNNANVLGGEIND [BRR2] | protein stability index | 3.18 |
| SSGQDKKKKKGSNQKPK [RPT2] | protein stability index | 2.92 |

###

ASSAY_TEXT: protein stability index of a GFP-peptide fusion (yeast GPS) (PSI 1-4); higher = more stable; sorted into four equal gates, so the index is relative within each strain
STUDY_CONDITIONS: ubr1∆
A collection of sequences and their measured protein stability index
EXPERIMENTAL_READOUT: protein stability index

| POLYMER_SEQUENCE | EXPERIMENTAL_READOUT | VALUE_REPORTED |
| --- | --- | --- |
| EFFHLQHYLDTATAPRL [QCR6] | protein stability index | 3 |
| VAIQQGDIKPEFSPRLH [YML103C/NUP188] | protein stability index | 2.83 |
| VAARMFHILLKLILEWV [ECM29] | protein stability index | 2.1 |
| LDPLEMEGNAQPVNFNR [RPO31] | protein stability index | 2.97 |
| LIALSLIMALLQFRPAP [SMC2] | protein stability index | 1.3 |
| LSEYDAIQKKDNKDKEG [YOR098C/NUP1] | protein stability index | 3.38 |
| LLAKRLSERKAEKAEIR [RPS6A] | protein stability index | 3.33 |
| IQKESTLHLVLRLRGGI [RPL40A] | protein stability index | 2.54 |
| TETKRLVVIRFGRKNDR [DIB1] | protein stability index | 2.89 |
| EDLFETISQALLNAADR [PUP3] | protein stability index | 1.92 |
| SRMRLIRQDVNLGRAVF [PRP8] | protein stability index | 2.35 |
| QVLNRYTYSSTLSHLRR [RPB2] | protein stability index | 2.81 |
| FQITLSSDDLQNCWSLI [SSN8] | protein stability index | 1.91 |
| VAEIVQNVISLGSLTVE [RPC82] | protein stability index | 1.68 |
| FAGVASMNVTLGVPRIK [RPO31] | protein stability index | 2.76 |
| PSAEIREAYIENFAKGE [SWP82] | protein stability index | 2.4 |
| QLKNGLLEKYNTNELKE [MTR3] | protein stability index | 2.65 |
| LPFMQNAGPNSNIPNLL [YDL088C/ASM4] | protein stability index | 2.52 |
| IEQEKQEQQEQDKKKKS [PRE6] | protein stability index | 1.59 |
| LTDKDAFETHYRRLFAK [CDC53] | protein stability index | 2.97 |
| STELNNKQYELFMKSLI [SWI1] | protein stability index | 2.74 |
| RPNGRKDHDLKIPLPEV [POP1] | protein stability index | 3.15 |
| NNDQKRQQAYKTAQTLD [YJL041W/NSP1] | protein stability index | 3.23 |
| TIHRSFTICLNDRNPRL [CSN12] | protein stability index | 2.65 |
| ELDRAAMNDKDLTMGQV [RPO21] | protein stability index | 3.12 |
| FGHLKLALPVFHIGYFK [RPO31] | protein stability index | 1.13 |
| TDIEEGMRVGVDRSKYN [RPT1] | protein stability index | 3.13 |
| LKTEAANVLDPSLRKLI [BRR2] | protein stability index | 2.68 |
| LLAEYDNIYRNLQKIDK [MED4] | protein stability index | 2.32 |
| VAKTAPNSNKTHTEQNN [SNF2] | protein stability index | 3.06 |
